# tested.target: PKC-delta (Homo sapiens, UniProt Q05655)
# Construct: purchased Calbiochem
# Sequence (Q05655 whole entry): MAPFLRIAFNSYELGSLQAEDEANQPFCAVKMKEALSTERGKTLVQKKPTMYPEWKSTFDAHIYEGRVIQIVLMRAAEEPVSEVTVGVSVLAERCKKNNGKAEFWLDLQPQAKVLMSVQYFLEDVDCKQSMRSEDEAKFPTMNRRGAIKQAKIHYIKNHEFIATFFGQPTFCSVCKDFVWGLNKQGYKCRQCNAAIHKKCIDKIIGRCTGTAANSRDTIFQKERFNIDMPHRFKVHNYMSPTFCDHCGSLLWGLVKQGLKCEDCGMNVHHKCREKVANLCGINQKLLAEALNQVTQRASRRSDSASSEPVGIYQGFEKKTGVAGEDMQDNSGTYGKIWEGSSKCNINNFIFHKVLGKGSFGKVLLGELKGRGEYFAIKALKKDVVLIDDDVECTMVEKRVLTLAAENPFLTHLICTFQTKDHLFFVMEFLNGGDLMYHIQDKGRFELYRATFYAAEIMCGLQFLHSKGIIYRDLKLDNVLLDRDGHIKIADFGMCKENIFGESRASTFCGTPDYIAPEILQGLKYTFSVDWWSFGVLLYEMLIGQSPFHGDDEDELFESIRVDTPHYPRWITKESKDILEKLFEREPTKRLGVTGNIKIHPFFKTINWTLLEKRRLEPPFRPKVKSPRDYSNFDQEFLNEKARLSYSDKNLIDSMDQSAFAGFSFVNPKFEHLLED
# experimental.protocol: In vitro kinase assay: peptide phosphorylation by PKC-delta
# Format: biochemical
# reported.conditions: peptide concentration 10 uM
I'd appreciate it if you marked entries Criterion met when phosphorylation by PKC-delta is lower than 30 and Criterion not met when it is not.

[[record]]
substance = "121 (LRRRSLRRSNSISKSPGP) [compound 121]"
qualitative_label = "Criterion not met"

[[record]]
substance = "151 (PQNSLKASNRKKKRTSFKRK) [compound 151]"
qualitative_label = "Criterion not met"

[[record]]
substance = "126 (KAIKAIEGGQKFARKSTRRS) [compound 126]"
qualitative_label = "Criterion not met"

[[record]]
substance = "159 (LYARLARAYRRSQRASFKRA) [compound 159]"
qualitative_label = "Criterion met"

[[record]]
substance = "155 (RWDKRRWRKIPKRPGSVHRT) [compound 155]"
qualitative_label = "Criterion met"

[[record]]
substance = "132 (GFLNEPLSSKSQRRKSLKLK) [compound 132]"
qualitative_label = "Criterion not met"

[[record]]
substance = "161 (KYKAFIRIPIPTRRHTFRRQ) [compound 161]"
qualitative_label = "Criterion met"

[[record]]
substance = "141 (VTDSQKRREILSRRPSYRKI) [compound 141]"
qualitative_label = "Criterion met"

[[record]]
substance = "150 (VDPFYEMLAARKKRISVKKK) [compound 150]"
qualitative_label = "Criterion met"

[[record]]
substance = "120 (AKRRRLSSLRASTSK) [compound 120]"
qualitative_label = "Criterion not met"

[[record]]
substance = "131 (WKGKRRSKARKKRK) [compound 131]"
qualitative_label = "Criterion met"

[[record]]
substance = "142 (ERHVAQKKSRLRRRASQLKI) [compound 142]"
qualitative_label = "Criterion not met"

[[record]]
substance = "145 (ISDFGLAKKLAVGRHSFSRR) [compound 145]"
qualitative_label = "Criterion met"

[[record]]
substance = "166 (MAQIERGEARIQRRISIKKA) [compound 166]"
qualitative_label = "Criterion met"

[[record]]
substance = "114 (KKKKRASFKRKSSKKG) [compound 114]"
qualitative_label = "Criterion not met"

[[record]]
substance = "125 (PLKEKKRERKTSSKSSVRKR) [compound 125]"
qualitative_label = "Criterion not met"

[[record]]
substance = "165 (TEEKSKKRKKKHRKNSRKHK) [compound 165]"
qualitative_label = "Criterion met"

[[record]]
substance = "148 (RELEQLKAEYLERRASRRRA) [compound 148]"
qualitative_label = "Criterion met"

[[record]]
substance = "127 (SQVQKQRSAGSFKRNSIKKI) [compound 127]"
qualitative_label = "Criterion not met"

